assay.system: Histone deacetylase 1 (Homo sapiens)
measured.attribute: IC50
Remember to put the unit after the number in your answer.

Qu. Look up IC50 with Histone deacetylase 1 (Homo sapiens) for this compound: CCC(CCCCC(=O)Nc1ccccc1)CC(=O)NO (stereo unspecified)
Ans. 22 µM

====

Activity values, listed per item
assay.system: Histone deacetylase 1 (Homo sapiens)
measurement.notes: Inhibition of HDAC1 assessed as residual activity at 32 uM after 30 mins by Fluor de Lys fluorescence assay
The reply should be a number in %, with the unit left off.

Qu. Request the reported Activity associated with CCC(CCCCC(=O)Nc1ccccc1)CC(=O)NO (centres undefined)
Ans. 39

====

Some compounds, each annotated with its measured IC50.
assay.system: Histone deacetylase
measurement.notes: Inhibition of human HDAC in HeLa cells after 30 mins by Fluor de Lys fluorescence assay
Assay type: cell-based

See these solved cases before continuing.
Qu. What IC50 appears in the records for this compound with Histone deacetylase? O=C(CC(CCCCC(=O)Nc1ccccc1)c1ccccc1)NO (stereo not given)
Ans. 73 µM

Qu. Repeat with CC(CCCCC(=O)Nc1ccccc1)CC(=O)NO (stereo not given)
Ans. 0.35 µM

Qu. Do the same for CCC(CCCCC(=O)Nc1ccccc1)CC(=O)NO (stereo not given) please
Ans. 32 µM

Qu. Thanks! And C=CC(CCCCC(=O)Nc1ccccc1)CC(=O)NO (stereo not given) ?
Ans. 15 µM

Further cases:
Qu. Field: IC50 (Histone deacetylase). Entry: CCCCC(CCCCC(=O)Nc1ccccc1)CC(=O)NO (stereo not given)
Ans. 184 µM

====

Readings of Activity for the listed compounds
assay.system: Protein deacetylase HDAC6 (Homo sapiens)
measurement.notes: Inhibition of HDAC6 assessed as residual activity at 32 uM after 30 mins by Fluor de Lys fluorescence assay
Numbers only; they are read as %.

Qu. Quick one: Activity for O=C(CC(CCCCC(=O)Nc1ccccc1)c1ccccc1)NO (centres undefined) ?
Ans. 25

Qu. Follow-up item: C=CC(CCCCC(=O)Nc1ccccc1)CC(=O)NO (centres undefined)
Ans. 27

Qu. Please answer likewise for CCCCC(CCCCC(=O)Nc1ccccc1)CC(=O)NO (centres undefined)
Ans. 24

Consider the record given below.
Qu. I would be grateful if you could share the reported Activity for CCC(CCCCC(=O)Nc1ccccc1)CC(=O)NO (centres undefined) .
Ans. 18

====

assay.system: Histone deacetylase 3 (Homo sapiens)
Sequence (O15379 whole entry): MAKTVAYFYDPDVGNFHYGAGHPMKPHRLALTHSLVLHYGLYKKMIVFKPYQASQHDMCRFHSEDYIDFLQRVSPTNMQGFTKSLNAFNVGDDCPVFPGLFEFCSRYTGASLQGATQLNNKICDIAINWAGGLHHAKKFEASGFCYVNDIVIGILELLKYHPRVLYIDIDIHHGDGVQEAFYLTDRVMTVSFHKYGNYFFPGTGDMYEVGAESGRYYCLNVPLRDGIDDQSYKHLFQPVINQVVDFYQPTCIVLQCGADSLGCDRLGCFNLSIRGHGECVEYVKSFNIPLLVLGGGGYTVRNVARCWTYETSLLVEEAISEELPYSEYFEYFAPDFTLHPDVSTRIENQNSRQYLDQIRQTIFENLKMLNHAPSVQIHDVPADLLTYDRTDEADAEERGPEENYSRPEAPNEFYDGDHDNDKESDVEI
measurement.notes: Inhibition of HDAC3 assessed as residual activity at 32 uM after 30 mins by Fluor de Lys fluorescence assay
measured.attribute: Activity (%)
Give just the number in %; leave the unit off.

Qu. Form field: Activity recorded for O=C(CC(CCCCC(=O)Nc1ccccc1)c1ccccc1)NO (centres undefined) with Histone deacetylase 3 (Homo sapiens) (enter value)
Ans. 50

Qu. Subsequent entry: CCCCC(CCCCC(=O)Nc1ccccc1)CC(=O)NO (centres undefined)
Ans. 51

Qu. Same thing, different compound: CCC(CCCCC(=O)Nc1ccccc1)CC(=O)NO (centres undefined)
Ans. 83

Others:
Qu. Enter reported Activity observed with Histone deacetylase 3 (Homo sapiens) for C=CC(CCCCC(=O)Nc1ccccc1)CC(=O)NO (centres undefined)
Ans. 47

====

assay.system: Histone deacetylase 1 (Homo sapiens, UniProt Q13547)
Sequence (Q13547 whole entry): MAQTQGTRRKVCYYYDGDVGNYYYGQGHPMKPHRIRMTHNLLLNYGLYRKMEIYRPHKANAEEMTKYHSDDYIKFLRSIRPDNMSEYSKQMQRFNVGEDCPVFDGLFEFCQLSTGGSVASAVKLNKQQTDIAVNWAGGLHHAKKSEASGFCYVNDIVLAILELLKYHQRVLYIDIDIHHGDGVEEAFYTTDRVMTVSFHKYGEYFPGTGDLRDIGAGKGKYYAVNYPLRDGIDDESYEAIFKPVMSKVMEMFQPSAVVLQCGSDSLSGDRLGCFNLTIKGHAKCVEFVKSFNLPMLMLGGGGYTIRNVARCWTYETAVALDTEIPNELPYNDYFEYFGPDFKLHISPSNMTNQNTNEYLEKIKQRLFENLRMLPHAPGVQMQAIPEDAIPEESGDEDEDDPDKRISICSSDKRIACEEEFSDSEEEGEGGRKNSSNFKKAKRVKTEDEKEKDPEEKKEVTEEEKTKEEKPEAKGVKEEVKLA
measurement.notes: Inhibition of HDAC1 assessed as residual activity at 32 uM after 30 mins by Fluor de Lys fluorescence assay
measured.attribute: Activity

Examples from the recorded data:
Qu. Find the recorded Activity belonging to CCCCC(CCCCC(=O)Nc1ccccc1)CC(=O)NO (stereo not drawn) and report it.
Ans. 33%

Qu. Now consider O=C(CC(CCCCC(=O)Nc1ccccc1)c1ccccc1)NO (stereo not drawn) and answer again.
Ans. 45%

Others:
Qu. What Activity value was documented for this compound, C=CC(CCCCC(=O)Nc1ccccc1)CC(=O)NO (stereo not drawn) ?
Ans. 24%
